# assayMethodText: basal S. cerevisiae growth modulation, no modifier, primary screen, OD600, strain BY4716, 24 h, basal condition (AID 1173)
# conditionNotes: OD600, 24 h, higher = more signal, called active from +8 up or from −8 down
z-score values for the compounds below.
API doc: respond with a numeric literal and nothing else, no unit.

Reference set, count: 3
O=C1OCCC=C[C@H]2OC34C=CCN(Cc5ccccc5)C(=O)[C@H]3N(CCCCCO)C(=O)[C@@H]4C12 (stereo partly drawn) | -0.266
CCOC(=O)C1=CCC(c2ccc([N+](=O)[O-])cc2)N(S(=O)(=O)c2ccc(C)cc2)C1 (stereo not drawn) | 2.15
C[C@]1(C(=O)NCc2ccccc2)c2ccccc2C(=O)N(Cc2ccc(OC(F)(F)F)cc2)[C@H]1c1ccc(CO)cc1 | -1.51

Exercise: Which z-score value is on record for `COc1ccc([Si](C)(C)[C@@H]2[C@@H](CC(=O)N3CCC[C@H]3CO)O[C@]3(C(=O)N(C)c4c(Br)cc(C)cc43)[C@H]2C)cc1` ?
Key: -1.62

* * *

composite z-score values for the molecules below.
# assayedSystem: Torsin-1A-interacting protein 1 (Homo sapiens) (UniProt Q5JTV8)
# Sequence (Q5JTV8 whole entry, looked up): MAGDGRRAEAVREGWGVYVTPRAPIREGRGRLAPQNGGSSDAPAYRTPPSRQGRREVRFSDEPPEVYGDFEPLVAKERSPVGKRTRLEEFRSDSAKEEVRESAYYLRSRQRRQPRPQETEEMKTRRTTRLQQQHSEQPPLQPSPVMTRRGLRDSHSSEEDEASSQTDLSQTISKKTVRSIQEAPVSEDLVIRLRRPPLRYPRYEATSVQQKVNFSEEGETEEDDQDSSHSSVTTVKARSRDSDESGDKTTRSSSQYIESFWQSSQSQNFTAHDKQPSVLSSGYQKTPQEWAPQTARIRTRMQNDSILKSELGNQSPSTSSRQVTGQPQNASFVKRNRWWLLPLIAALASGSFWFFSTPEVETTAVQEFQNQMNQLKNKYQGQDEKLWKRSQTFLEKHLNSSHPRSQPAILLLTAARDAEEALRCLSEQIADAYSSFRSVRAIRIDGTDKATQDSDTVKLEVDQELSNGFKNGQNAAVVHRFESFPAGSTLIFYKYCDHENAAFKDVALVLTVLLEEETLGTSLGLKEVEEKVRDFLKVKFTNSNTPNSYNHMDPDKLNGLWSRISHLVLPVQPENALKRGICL
# assayMethodText: LAP1 binders from COS7 cell lysate, primary screen, small-molecule microarray, 635/667 nm fluorescence (AID 1116)
# conditionNotes: COS7-hLAP1 lysate binding, 635 nm fluorescence, higher = more signal
API doc: respond with a numeric literal and nothing else, no unit.

Reference set, count: 3
CN(C)C(=O)[C@@]1(CCC(=O)OC(C)(C)C)N=C(c2ccc(OCCCO)cc2)O[C@H]1c1ccccc1 | 1.41
COC(=O)c1ccc(C23CC2(C(NP(=O)(c2ccccc2)c2ccccc2)c2ccccc2)C3)cc1 (stereo not given) | 2.58
COC(=O)[C@@]1(Cc2ccccc2)[C@H]2c3cc(C(=O)N4CCCC4)n(C)c3C[C@H]2CN1C(=O)c1ccccc1 | 1.28

Exercise: Which composite z-score value is on record for O=C1OCCC=C[C@H]2OC34C=CCN(Cc5ccccc5)C(=O)[C@H]3N(CCCCCO)C(=O)[C@@H]4C12 (stereo not given in full) ?
Key: 1.95

Exercise: Which composite z-score value is on record for O=C1C2C=CC(C(O)c3ccc(F)cc3)N(Nc3ccccc3)C2C(=O)N1c1ccccc1 (stereo not given) ?
Key: 0.691

Exercise: Which composite z-score value is on record for COc1ccc(C(O)C2C=CC3C(=O)N(C)C(=O)C3N2Nc2ccccc2)cc1OCc1ccccc1 (stereo not given) ?
Key: 1.25

Exercise: Which composite z-score value is on record for CC(C)N1CC=CC23O[C@@H]4C=CCOC(=O)[C@@H]4[C@H]2C(=O)N(CCO)[C@@H]3C1=O (stereo not given in full) ?
Key: 0.0566

Exercise: Which composite z-score value is on record for CC(C)c1ccc(NN2C(C(O)c3cccc(O)c3)C=CC3C(=O)N(c4ccccc4)C(=O)C32)cc1 (stereo not given) ?
Key: 1.5

Exercise: Which composite z-score value is on record for `COC(=O)c1c(CC[C@@H](CO)NC(=O)N[C@@H](Cc2ccccc2)Cn2cc(C3(O)CCCCC3)nn2)oc(C(C)=O)c1C(=O)OC` ?
Key: 0.639

Exercise: Which composite z-score value is on record for Cc1cc(C)c(C(O)C2C=CC3C(=O)N(c4ccccc4)C(=O)C3N2Nc2ccc(C#N)cc2)c(C)c1 (stereo not given) ?
Key: 0.922

Exercise: Which composite z-score value is on record for `C[N+](C)(C)CCCCCCNC(=O)[C@H]1C[C@H]2C(=O)N3CCC[C@H]3C(=O)N2[C@H]1c1ccc(O)cc1` ?
Key: 0.541

Exercise: Which composite z-score value is on record for `COCCOC(=O)N1C(=O)[C@@]2(c3cc(C#CCC(C(=O)OC)C(=O)OC)ccc31)[C@H](c1ccc(O)cc1)N1[C@H](c3ccccc3)[C@H](c3ccccc3)OC(=O)[C@H]1[C@@H]2C(N)=O` ?
Key: 1.03

Exercise: Which composite z-score value is on record for `O=C1O[C@@H](c2ccccc2)[C@@H](c2ccccc2)N2[C@@H](c3ccc(O)cc3)[C@]3(C(=O)Nc4ccc(C#CC5(O)CCCCCC5)cc43)[C@@H](C(=O)N3CCCCCCC3)[C@H]12` ?
Key: 4.7

Exercise: Which composite z-score value is on record for CCCCCN1CC=CC23O[C@@H]4/C=C\CCC(C)OC(=O)C4[C@H]2C(=O)N(CCCCCO)[C@@H]3C1=O (stereo not given in full) ?
Key: -0.912

Exercise: Which composite z-score value is on record for CC(=O)C1=CCC(c2ccccc2)N(S(=O)(=O)c2ccc(C)cc2)C1 (stereo not given) ?
Key: 1.28

* * *

# assayMethodText: PSAC antagonists in infected red cells, primary screen, cell-based, P. falciparum Indochina, OD700, 18 h (AID 1157)
# conditionNotes: P. falciparum Indochina infected erythrocytes, osmotic lysis OD700, 18 h; higher = more signal, called active from +8 up or from −8 down
Hi, to clarify the labels: Met covers z-score from 0.3 upward, Not met covers anything below 0.3.

O=C1C=CC(=O)[C@@H]2CC(COc3ccccc3)=C3[C@@H](CCc4ccccc4)OB(O)C[C@@H]3[C@H]12 | Not met
CC(C)NC(=O)[C@@]1(Cc2ccccc2I)c2ccccc2C(=O)N(Cc2ccccc2)[C@H]1c1ccc(CO)cc1 | Met
COC(=O)[C@@]1(Cc2ccc(F)cc2)[C@H]2c3cc(C(=O)N4CCCC4)n(Cc4cccc5ccccc45)c3C[C@H]2CN1C(=O)c1ccccc1 | Met
O=C1O[C@@H](c2ccccc2)[C@@H](c2ccccc2)N2[C@@H](c3ccc(OCCO)cc3)[C@]3(C(=O)Nc4ccc(C#CC5=CCCCC5)cc43)[C@@H](C(=O)O)[C@H]12 | Not met
CC(C)C(=C=CC[C@H](O)c1cccc(OCCO)c1)C[C@H](O)COCc1ccccc1 | Met
COCCOC(=O)N1C(=O)[C@@]2(c3cc(C#CCNC(N)=O)ccc31)[C@H](c1ccc(OCCO)cc1)N1[C@H](c3ccccc3)[C@H](c3ccccc3)OC(=O)[C@H]1[C@@H]2C(=O)N1CCc2cc(OC)c(OC)cc2C1 | Met

# ---- query compound ----
Exercise: Reported z-score reaches at least 0.3 for `COc1cc2c(cc1OC)CN(C(=O)[C@@H]1[C@H]3C(=O)O[C@H](c4ccccc4)[C@H](c4ccccc4)N3[C@H](c3ccccc3OCCO)[C@@]13C(=O)Nc1ccc(C#CCNC(N)=O)cc13)CC2` ?
Key: Not met

* * *

# assayMethodText: inhibitors of hydroxyurea-induced Chk1 phosphorylation, primary screen, imaging, HeLa, phospho-Chk1 antibody, percent positive cells (AID 1186)
# conditionNotes: hydroxyurea-induced phospho-Chk1 immunofluorescence imaging, higher = more signal
Activity calls are given as the source filed them. No rule for the calls is given here.
recordedEndpoint: z-score

Reference set, count: 3
C=CC[C@]1(C(=O)N2CCOCC2)N=C(c2ccc(OCCCO)cc2)O[C@H]1c1ccccc1 | -0.274 (inactive)
C[N+](C)(C)CCCCCCNC(=O)[C@H]1C[C@H]2C(=O)N3CCC[C@H]3C(=O)N2[C@H]1c1ccc(O)cc1 | -0.428 (inactive)
COC(=O)[C@@]1(Cc2ccc(F)cc2)[C@H]2c3cc(C(=O)N(C)C)n(CCc4ccccn4)c3C[C@H]2CN1C(=O)c1ccccc1 | -0.0308 (inactive)

Now for a further molecule.
Exercise: Which z-score value is on record for O=C1C2C=CC(C(O)c3ccc(-c4ccccc4)s3)N(n3cnnc3)C2C(=O)N1Cc1ccccc1 (centres undefined) ?
Key: -0.295 (inactive)

* * *

composite z-score values for the molecules below.
# assayMethodText: small-molecule microarray binders of probe aWnt5a, primary screen, biochemical, biotinylated probe, 635/667 nm fluorescence (AID 1113);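 note: score merges 667 nm fluorescence intensity with signal-to-noise per printed feature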
# conditionNotes: higher = more signal
API doc: respond with a numeric literal and nothing else, no unit.

C=CCC(OC(C)=O)[C@@H]1[C@@H](N(Cc2cccc3ccccc23)C(=O)c2cccc3ccccc23)c2cc(OCCCO)ccc2N1C(=O)c1ccc2ccccc2n1 (stereo not given in full) | -0.208
C=CCOC(=O)[C@H]1[C@@H]2C(=O)O[C@@H](c3ccccc3)[C@@H](c3ccccc3)N2[C@@H](c2ccc(OCCOC(=O)[C@@H]3C[C@@H]4C(=O)NCC(=O)N4[C@@H]3c3ccc(O)cc3)cc2)[C@]12C(=O)Nc1ccccc12 | -0.0573
COCCOC(=O)N1C(=O)[C@@]2(c3cc(C#CCCO)ccc31)[C@H](c1ccc(O)cc1)N1[C@H](c3ccccc3)[C@H](c3ccccc3)OC(=O)[C@H]1[C@@H]2C(N)=O | -0.0118
Cc1cc(C)c(C(O)C2C=CC3C(=O)N(c4ccccc4)C(=O)C3N2Nc2ccc(C#N)cc2)c(C)c1 (stereo not given) | 0.0894

Exercise: Which composite z-score value is on record for `O=C1O[C@@H](c2ccccc2)[C@@H](c2ccccc2)N2[C@@H](c3ccccc3OCCO)[C@]3(C(=O)Nc4ccc(C#CC5(O)CCCCCC5)cc43)[C@@H](C(=O)Nc3nc4ccccc4s3)[C@H]12` ?
Key: -0.0495
